Source of measurements: ChEMBL document CHEMBL6114952

Entries and their IC50
Test system: HeLa
Assay: Antiproliferative activity against human HeLa cells assessed as inhibition of cell proliferation incubated for 48 hrs by MTT assay
Assay type: functional, cell-based
Write the answer as a number in µM, unit excluded.

Q. Return reported IC50; argument: `C=C(C)[C@@H]1CC[C@]2(C(=O)O)CC[C@]3(C)[C@H](CC[C@@H]4[C@@]5(C)CC[C@H](OC(=O)NCCCNC(=O)CCl)C(C)(C)[C@@H]5CC[C@]43C)[C@@H]12`
A. 7.34

Q. Return reported IC50; argument: `C=C(C)[C@@H]1CC[C@]2(C(=O)O)CC[C@]3(C)[C@H](CC[C@@H]4[C@@]5(C)CC[C@H](OC(=O)NCCCCNC(=O)CCl)C(C)(C)[C@@H]5CC[C@]43C)[C@@H]12`
A. 8.69

Q. Return reported IC50; argument: `C=C(C)[C@@H]1CC[C@]2(C(=O)O)CC[C@]3(C)[C@H](CC[C@@H]4[C@@]5(C)CC[C@H](OC(=O)N6CCN(C(=O)C(F)(F)Cl)CC6)C(C)(C)[C@@H]5CC[C@]43C)[C@@H]12`
A. 31.3

###

Entries and their IC50
Tested on: HeLa
Assay: Antiproliferative activity against human HeLa cells assessed as inhibition of cell proliferation incubated for 48 hrs by MTT assay
Format: functional, cell-based
Respond with the figure and its unit, in that order.

Worked examples follow.
Q. Return reported IC50; argument: `C=C(C)[C@@H]1CC[C@]2(C(=O)N3CCN(C(=O)CCl)CC3)CC[C@]3(C)[C@H](CC[C@@H]4[C@@]5(C)CCC(=O)C(C)(C)[C@@H]5CC[C@]43C)[C@@H]12`
A. 2.01 µM

Q. Return reported IC50; argument: `C=CC(=O)O[C@H]1CC[C@]2(C)[C@H]3CC[C@@H]4[C@H]5[C@H](C(=C)C)CC[C@]5(C(=O)O)CC[C@@]4(C)[C@]3(C)CC[C@H]2C1(C)C`
A. 33.5 µM

Q. Return reported IC50; argument: `C=C(C)[C@@H]1CC[C@]2(C(=O)O)CC[C@]3(C)[C@H](CC[C@@H]4[C@@]5(C)CC[C@H](OC(C)=O)C(C)(C)[C@@H]5CC[C@]43C)[C@@H]12`
A. 32.1 µM

Q. Return reported IC50; argument: C=C(C)[C@@H]1CC[C@]2(C(=O)O)CC[C@]3(C)[C@H](CC[C@@H]4[C@@]5(C)CC[C@H](O)C(C)(C)[C@@H]5CC[C@]43C)[C@@H]12 [BETULINIC ACID]
A. 51.3 µM

Q. Return reported IC50; argument: `C=C(C)[C@@H]1CC[C@]2(C(=O)O)CC[C@]3(C)[C@H](CC[C@@H]4[C@@]5(C)CC[C@H](OC(=O)CC)C(C)(C)[C@@H]5CC[C@]43C)[C@@H]12`
A. 39.4 µM

Q. Return reported IC50; argument: `C=C(C)[C@@H]1CC[C@]2(C(=O)O)CC[C@]3(C)[C@H](CC[C@@H]4[C@@]5(C)CC[C@H](OC(=O)CCl)C(C)(C)[C@@H]5CC[C@]43C)[C@@H]12`
A. 15.3 µM

Next compound, please.
Q. Return reported IC50; argument: `C=C(C)[C@@H]1CC[C@]2(C(=O)O)CC[C@]3(C)[C@H](CC[C@@H]4[C@@]5(C)CC[C@H](OC(=O)N6CCN(C(=O)CCl)CC6)C(C)(C)[C@@H]5CC[C@]43C)[C@@H]12`
A. 1.11 µM
